Cited source: patent US11034699B2

- target_entity: human mGlu4 receptor (Homo sapiens (Human), UniProt Q14833)
- Sequence (Q14833 33-912): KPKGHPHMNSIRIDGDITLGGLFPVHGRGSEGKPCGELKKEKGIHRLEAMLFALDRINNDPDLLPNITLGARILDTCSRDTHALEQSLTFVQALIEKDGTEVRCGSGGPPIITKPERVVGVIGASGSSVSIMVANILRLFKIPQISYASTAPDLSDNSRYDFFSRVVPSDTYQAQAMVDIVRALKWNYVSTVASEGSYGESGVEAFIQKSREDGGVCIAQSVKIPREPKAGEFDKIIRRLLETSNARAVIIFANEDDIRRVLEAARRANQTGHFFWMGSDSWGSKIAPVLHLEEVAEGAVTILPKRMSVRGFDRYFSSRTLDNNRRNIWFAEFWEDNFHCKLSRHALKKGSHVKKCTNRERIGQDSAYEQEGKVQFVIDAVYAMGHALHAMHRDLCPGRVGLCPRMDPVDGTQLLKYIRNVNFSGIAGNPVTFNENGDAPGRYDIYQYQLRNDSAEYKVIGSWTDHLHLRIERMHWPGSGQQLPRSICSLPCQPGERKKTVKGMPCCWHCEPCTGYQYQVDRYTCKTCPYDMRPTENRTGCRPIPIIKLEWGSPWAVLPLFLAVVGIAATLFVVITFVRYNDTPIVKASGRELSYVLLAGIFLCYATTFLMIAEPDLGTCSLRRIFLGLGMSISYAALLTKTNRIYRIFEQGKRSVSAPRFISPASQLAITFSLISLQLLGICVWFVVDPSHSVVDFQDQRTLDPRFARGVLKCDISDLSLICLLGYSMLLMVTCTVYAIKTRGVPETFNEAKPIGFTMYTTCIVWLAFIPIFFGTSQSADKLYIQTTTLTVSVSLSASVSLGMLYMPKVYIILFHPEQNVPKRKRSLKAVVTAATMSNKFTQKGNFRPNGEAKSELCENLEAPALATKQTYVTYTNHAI
- protocol_description: Ca2+ mobilization in vitro assay on recombinant human mGlu4 expressed in HEK293 cells (PAM)
- Type: cell-based
- run_conditions: HEK293 cells, human mGlu4, L-AP4 at EC20
observable: EC50 (nM)
Please state the figure in nM; there is no need to write the unit.

Example entries and their recorded answers appear below.
CN1C(=O)N(c2c(F)cc(C#Cc3ccccc3)cc2F)C(=O)C[C@]12CCc1ncccc12 [Example 4] | 94
CN1C(=O)N(c2c(F)cc(C#Cc3ccccc3)cc2F)C(=O)C[C@]12CCCc1c2cnn1C [Example 14] | 75
CN1C(=O)N(c2c(F)cc(C#Cc3cccnc3)cc2F)C(=O)C[C@]12CCc1ccccc12 [Example 3] | 61

Input: State its EC50 on human mGlu4 receptor (Homo sapiens (Human), UniProt Q14833): CN1C(=O)N(c2c(F)cc(C#Cc3ccccc3)cc2F)C(=O)C[C@]12CCCc1ncncc12 [Example 7]
Output: 65
